Each entry below carries its recorded Kb.
Target: rabbit aortic rings (angiotensin II contraction) (Oryctolagus cuniculus)
Construct: The thoracic aorta was removed, cleaned of adherent fat and connective tissue and then cut into 3-mm ring segments; from tissue; host or cells: rabbit thoracic aorta rings, endothelium removed
Sequence (P34976 whole entry): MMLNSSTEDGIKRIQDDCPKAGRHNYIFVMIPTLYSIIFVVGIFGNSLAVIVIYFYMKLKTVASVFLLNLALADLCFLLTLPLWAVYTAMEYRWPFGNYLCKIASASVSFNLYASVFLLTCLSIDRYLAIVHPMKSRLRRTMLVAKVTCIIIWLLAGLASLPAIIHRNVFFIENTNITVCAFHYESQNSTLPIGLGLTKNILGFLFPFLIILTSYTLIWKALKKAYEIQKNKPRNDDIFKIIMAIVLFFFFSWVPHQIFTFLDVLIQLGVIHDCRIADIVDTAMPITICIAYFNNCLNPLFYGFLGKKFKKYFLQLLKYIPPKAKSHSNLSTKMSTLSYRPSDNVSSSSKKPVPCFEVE
Test: Assay B: In Vitro Vascular Smooth Muscle Response for AII (rabbit aortic rings)
Assay type: cell-based, rabbit (male New Zealand white)
Conditions: rabbit aorta rings, antagonist 10^-5 M for 5 min, 37° C.; second of two values in the cell (rings from two rabbits); read-out: Assay B pA2 (converted)
Express it in nM; write the number only.

Compound: CCCCc1ncc2n1[C@@H](c1ccc(-c3ccccc3-c3nn[nH]n3)cc1)CC[C@H]2CC(=O)O (relative stereo)
Kb [nM]: 141

What does the data say about its Kb? Entry: CCCCc1ncc2n1C(c1ccc(-c3ccccc3-c3nnn[nH]3)cc1)CCC2=CC(=O)O (stereo not drawn)
16.2

What does the data say about its Kb? Entry: CCCCc1nc(CCCC)n2c1C(O)CCC2c1ccc(-c2ccccc2-c2nnn[nH]2)cc1 (stereo not drawn)
14.5

What does the data say about its Kb? Entry: CCCCc1ncc2n1[C@@H](c1ccc(-c3ccccc3-c3nn[nH]n3)cc1)CC[C@H]2O (relative stereo)
138

What does the data say about its Kb? Entry: CCCCc1nc(CCCC)n2c1C(=NO)CCC2c1ccc(-c2ccccc2-c2nn[nH]n2)cc1 (stereo not drawn)
741

What does the data say about its Kb? Entry: CCCCc1nc(CCCC)n2c1C(NC(=O)CCC(=O)NN)CCC2c1ccc(-c2ccccc2-c2nn[nH]n2)cc1 (stereo not drawn)
57.5

What does the data say about its Kb? Entry: CCCCc1nc(CCCC)n2c1C=CCC2c1ccc(-c2ccccc2-c2nnn[nH]2)cc1 (stereo not drawn)
537

What does the data say about its Kb? Entry: CCCCc1ncc2n1[C@@H](c1ccc(-c3ccccc3-c3nn[nH]n3)cc1)CC[C@H]2CC(=O)OC(C)(C)C (relative stereo)
141
